Test system: PKN1;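 also: KINOMEscan kinase panel screen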
condition details: concentration: 1 μM, replicates: in singlicate; n = 1
Item-by-item account of %Inh
Answer format: numeric, % implied, no suffix.

For orientation, consider the following solved cases.
CC(=O)Nc1nc2cnc(Nc3cc(NC(=O)c4cccc(C5(C#N)CC5)c4Cl)ccc3C)nc2s1: 0
COc1cc2c(cc1OCCN1CCNCC1)ncc1c3ccc(C#N)cc3[nH]c21: 61
Cc1ccc(C(=O)Nc2ccc(Nc3ccnc4cc(-c5nccs5)ccc34)cc2O)cc1.Cl: 0
CC(C)c1nc(-c2cccc(NS(=O)(=O)c3c(F)cccc3F)c2F)c(-c2ccnc(Nc3ccc(N4CCOCC4)nc3)n2)s1: 6
COc1cc(Nc2nccc(-c3c(-c4cccc(NC(=O)c5c(F)cccc5F)c4)nn4ncccc34)n2)cc(OC)c1OC: 62
COc1ccc(-c2coc3ccc(-c4nnc(SCc5ccc(OC)c(C(F)(F)F)c5)o4)cc23)cc1: 24
CCc1ccc(-c2ccc3c(c2)-c2c(cnn2C)S(=O)(=O)N3C)cc1: 2
CN1CCN(CCCNc2nccc(-c3c(-c4ccc(F)cc4)nn4cc(C(F)(F)F)ccc34)n2)CC1: 12
Cc1ccc(S(=O)(=O)Nc2ccc(Nc3nccc(Nc4cccc5[nH]ncc45)n3)cc2)cc1: 22
COc1ccc(CNC(=O)NC2CCN(c3ccnc(Nc4ccc(F)cc4)n3)CC2)cc1: 0

Q: Given the compound "Cc1occc1-c1ncc(OC[C@@H](N)Cc2c[nH]c3ccccc23)cc1-c1ccc2[nH]nc(C)c2c1.O=C(O)C(F)(F)F" , what is its reported %Inh?
Result: 28

Q: Given the compound "Cc1cccc(NC(=O)Nc2ccc(Oc3ncnc4ccn(C)c34)cc2)c1" , what is its reported %Inh?
Result: 0
